- EXPERIMENTAL_TARGET: human CB2 receptors (Homo sapiens (Human), UniProt P34972)
- Sequence (P34972 whole entry): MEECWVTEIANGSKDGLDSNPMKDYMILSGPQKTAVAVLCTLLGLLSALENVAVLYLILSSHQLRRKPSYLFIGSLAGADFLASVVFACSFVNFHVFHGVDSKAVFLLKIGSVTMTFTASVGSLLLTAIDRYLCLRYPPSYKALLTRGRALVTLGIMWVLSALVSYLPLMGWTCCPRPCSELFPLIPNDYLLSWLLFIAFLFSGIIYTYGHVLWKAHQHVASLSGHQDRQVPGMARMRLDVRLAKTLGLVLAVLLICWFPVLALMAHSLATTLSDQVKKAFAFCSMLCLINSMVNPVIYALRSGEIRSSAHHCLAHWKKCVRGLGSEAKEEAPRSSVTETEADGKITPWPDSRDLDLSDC
- ASSAY: human CB2 radioligand binding assay ([3H]CP 55,940 competition)
- RECORDED_CONDITIONS: HEK293 membranes, 0.5 nM [3H]CP 55,940; read-out: human CB2 (Ki)
Friendly reminder: Ki below 50 nM is Y, at or above is N.

[[record]]
molecular_string = "CC(C)(C)c1cn(C[C@H]2CCCO2)/c(=N/C(=O)c2cc(C(F)(F)F)ccc2OCc2ccccc2)s1"
experimental_target = "human CB2 receptors (Homo sapiens (Human), UniProt P34972)"
assigned_category = "Y"

[[record]]
molecular_string = "CN1CC[C@@H]1COc1ccc(C(F)(F)F)cc1C(=O)/N=c1\\sc(C(C)(C)C)cn1C[C@H]1CCCO1"
experimental_target = "human CB2 receptors (Homo sapiens (Human), UniProt P34972)"
assigned_category = "Y"

[[record]]
molecular_string = "CC(CN1CCC[C@H]1COc1ccc(C(F)(F)F)cc1C(=O)/N=c1\\sc(C(C)(C)C)cn1C[C@H]1CCCO1)=NO"
experimental_target = "human CB2 receptors (Homo sapiens (Human), UniProt P34972)"
assigned_category = "N"

[[record]]
molecular_string = "CC(=O)N1CCC[C@H]1COc1ccc(C(F)(F)F)cc1C(=O)/N=c1\\sc(C(C)(C)C)cn1C[C@H]1CCCO1"
experimental_target = "human CB2 receptors (Homo sapiens (Human), UniProt P34972)"
assigned_category = "N"

[[record]]
molecular_string = "CN1CC(COc2ccc(C(F)(F)F)cc2C(=O)/N=c2\\sc(C(C)(C)C)cn2C[C@H]2CCCO2)C1"
experimental_target = "human CB2 receptors (Homo sapiens (Human), UniProt P34972)"
assigned_category = "N"

[[record]]
molecular_string = "CCN1CCC[C@H]1COc1ccc(C(F)(F)F)cc1C(=O)/N=c1\\sc(C(C)(C)C)cn1C[C@H]1CCCO1"
experimental_target = "human CB2 receptors (Homo sapiens (Human), UniProt P34972)"
assigned_category = "Y"

[[record]]
molecular_string = "CN1CCC[C@H]1COc1ccc(C(F)(F)F)cc1C(=O)/N=c1\\scc(C(C)(C)C)n1C[C@H]1CCCO1"
experimental_target = "human CB2 receptors (Homo sapiens (Human), UniProt P34972)"
assigned_category = "N"

[[record]]
molecular_string = "CN1CCC[C@H]1COc1ccc(C#N)cc1C(=O)/N=c1\\sc(C(C)(C)C)cn1C[C@H]1CCCO1"
experimental_target = "human CB2 receptors (Homo sapiens (Human), UniProt P34972)"
assigned_category = "Y"

[[record]]
molecular_string = "CN(CCOc1ccc(C(F)(F)F)cc1C(=O)/N=c1\\sc(C(C)(C)C)cn1C[C@H]1CCCO1)c1ccccc1"
experimental_target = "human CB2 receptors (Homo sapiens (Human), UniProt P34972)"
assigned_category = "Y"

[[record]]
molecular_string = "CC(C)(C)NOc1ccc(C(F)(F)F)cc1C(=O)/N=c1\\sc(C(C)(C)C)cn1C[C@H]1CCCO1"
experimental_target = "human CB2 receptors (Homo sapiens (Human), UniProt P34972)"
assigned_category = "Y"

[[record]]
molecular_string = "CN1CC[C@H](COc2ccc(C(F)(F)F)cc2C(=O)/N=c2\\sc(C(C)(C)C)cn2C[C@H]2CCCO2)C1"
experimental_target = "human CB2 receptors (Homo sapiens (Human), UniProt P34972)"
assigned_category = "N"

[[record]]
molecular_string = "CC(C)(C)c1cn(C[C@H]2CCCO2)/c(=N/C(=O)c2cc(C(F)(F)F)ccc2OC[C@H]2CCCCN2)s1"
experimental_target = "human CB2 receptors (Homo sapiens (Human), UniProt P34972)"
assigned_category = "Y"

